These data points were gathered from patent US4091006A.

# System: Perennial rye grass, crabgrass, red root pigweed, mustard
# Protocol details: Preliminary Herbicide Seed Germination Test
# Condition details: rating/maximum 20: 100 ppm only, four species, each rated 1 (no injury) to 5 (no seedlings emerged)
Could you please report measured Herbicide (total preemergence rating) for the items listed next?

In: For the compound `CCC(CC)C(=O)OC1=C(c2cc(C)ccc2C)C(=O)c2ccccc21` , report Herbicide (total preemergence rating).
Out: 4/20

In: For the compound `Cc1cc(C)c(C2=C(OC(=O)Cl)c3ccccc3C2=O)c(C)c1` , report Herbicide (total preemergence rating).
Out: 13/20

In: For the compound `CCc1ccccc1C1=C(OC(=O)C(C)(C)C)c2ccccc2C1=O` , report Herbicide (total preemergence rating).
Out: 4/20

In: For the compound `CCCCCCCCCCCCOC(=O)OC1=C(c2c(C)cc(C)cc2C)C(=O)c2ccccc21` , report Herbicide (total preemergence rating).
Out: 17/20

In: For the compound `CCCCCCCCCCCC(=O)OC1=C(c2ccc(C)cc2C)C(=O)c2ccccc21` , report Herbicide (total preemergence rating).
Out: 14/20

In: For the compound CCCC(C)C(=O)OC1=C(c2ccccc2Cl)C(=O)c2ccccc21 (centres unmarked) , report Herbicide (total preemergence rating).
Out: 4/20

In: For the compound CCCC(C)C(=O)OC1=C(c2ccc(C)cc2C)C(=O)c2ccccc21 (centres unmarked) , report Herbicide (total preemergence rating).
Out: 14/20

In: For the compound `CCCCCCCCCCCCCCCCCC(=O)OC1=C(c2c(C)cc(C)cc2C)C(=O)c2ccccc21` , report Herbicide (total preemergence rating).
Out: 19/20

In: For the compound `CC(C)c1ccccc1C1=C(OC(=O)C(C)(C)C)c2ccccc2C1=O` , report Herbicide (total preemergence rating).
Out: 4/20

In: For the compound `Cc1cc(C)c(C2=C(OC(=O)Oc3ccc(Cl)cc3)c3ccccc3C2=O)c(C)c1` , report Herbicide (total preemergence rating).
Out: 19/20

In: For the compound `Cc1cc(C)c(C2=C(OC(=O)COc3ccc(Cl)cc3Cl)c3ccccc3C2=O)c(C)c1` , report Herbicide (total preemergence rating).
Out: 20/20

In: For the compound `Cc1cc(C)c(C2=C(OC(=O)N(C)C)c3ccccc3C2=O)c(C)c1` , report Herbicide (total preemergence rating).
Out: 14/20

In: For the compound `Cc1cc(C)c(C2=C(OC(=O)N(C)c3ccccc3)c3ccccc3C2=O)c(C)c1` , report Herbicide (total preemergence rating).
Out: 10/20

In: For the compound CCCCC(CC)COC(=O)OC1=C(c2c(C)cc(C)cc2C)C(=O)c2ccccc21 (centres unmarked) , report Herbicide (total preemergence rating).
Out: 15/20

In: For the compound `CCCCCCCCCCCCCCCCCC(=O)OC1=C(c2ccccc2Cl)C(=O)c2ccccc21` , report Herbicide (total preemergence rating).
Out: 4/20

In: For the compound `CC(C)(C)C(=O)OC1=C(c2ccccc2C(F)(F)F)C(=O)c2ccccc21` , report Herbicide (total preemergence rating).
Out: 4/20

In: For the compound `Cc1cc(C)c(C2=C(OC(=O)Cc3ccccc3)c3ccccc3C2=O)c(C)c1` , report Herbicide (total preemergence rating).
Out: 19/20

In: For the compound CCCCC(CC)C(=O)OC1=C(c2cccc3ccccc23)C(=O)c2ccccc21 (centres unmarked) , report Herbicide (total preemergence rating).
Out: 14/20

In: For the compound `Cc1cc(C)c(C2=C(OC(=O)c3ccco3)c3ccccc3C2=O)c(C)c1` , report Herbicide (total preemergence rating).
Out: 17/20

In: For the compound `CCCCCCCCCCCCCCCCCC(=O)OC1=C(c2ccc(C)cc2C)C(=O)c2ccccc21` , report Herbicide (total preemergence rating).
Out: 14/20

====

Could you please report measured Phytotoxicity Rating, Tomato for the items listed next?
# System: Tomato
# Protocol details: Phytotoxicity, tomato
# Condition details: 2500 ppm, 10 days

In: For the molecule `COC(=O)CCC(=O)OC1=C(c2c(C)cc(C)cc2C)C(=O)c2ccccc21` , report Phytotoxicity Rating, Tomato.
Out: 1

In: For the molecule `CCCCCCCCCCCCOC(=O)OC1=C(c2c(C)cc(C)cc2C)C(=O)c2ccccc21` , report Phytotoxicity Rating, Tomato.
Out: 1

In: For the molecule CCCCC(CC)C(=O)OC1=C(c2c(C)cc(C)cc2C)C(=O)c2ccccc21 (stereo not shown) , report Phytotoxicity Rating, Tomato.
Out: 1

In: For the molecule CCCCC(CC)COC(=O)OC1=C(c2c(C)cc(C)cc2C)C(=O)c2ccccc21 (stereo not shown) , report Phytotoxicity Rating, Tomato.
Out: 1

In: For the molecule Cc1cc(C)c(C2=C(OC(=O)CC3C=CCC3)c3ccccc3C2=O)c(C)c1 (stereo not shown) , report Phytotoxicity Rating, Tomato.
Out: 1

In: For the molecule `COCC(=O)OC1=C(c2c(C)cc(C)cc2C)C(=O)c2ccccc21` , report Phytotoxicity Rating, Tomato.
Out: 1

In: For the molecule `Cc1cc(C)c(C2=C(OC(=O)CCCCl)c3ccccc3C2=O)c(C)c1` , report Phytotoxicity Rating, Tomato.
Out: 2

In: For the molecule `CC=CCCCCCCCC(=O)OC1=C(c2c(C)cc(C)cc2C)C(=O)c2ccccc21` , report Phytotoxicity Rating, Tomato.
Out: 2

In: For the molecule `CCCCCCCCSC(=O)OC1=C(c2c(C)cc(C)cc2C)C(=O)c2ccccc21` , report Phytotoxicity Rating, Tomato.
Out: 1

In: For the molecule `Cc1cc(C)c(C2=C(OC(=O)C(C)C)c3ccccc3C2=O)c(C)c1` , report Phytotoxicity Rating, Tomato.
Out: 2

====

# Tested on: Bean
# Protocol details: Phytotoxicity, bean
# Condition details: 2500 ppm, 10 days
Recorded endpoint: Phytotoxicity Rating, Bean
Output: the number by itself.

In: For the compound `CC=CCCCCCCCC(=O)OC1=C(c2c(C)cc(C)cc2C)C(=O)c2ccccc21` , report Phytotoxicity Rating, Bean.
Out: 2

In: For the compound `Cc1cc(C)c(C2=C(OC(=O)C3CCCCC3)c3ccccc3C2=O)c(C)c1` , report Phytotoxicity Rating, Bean.
Out: 1

In: For the compound `Cc1cc(C)c(C2=C(OC(=O)C(C)(C)C)c3ccccc3C2=O)c(C)c1` , report Phytotoxicity Rating, Bean.
Out: 1

In: For the compound `CCCCCCCCSC(=O)OC1=C(c2c(C)cc(C)cc2C)C(=O)c2ccccc21` , report Phytotoxicity Rating, Bean.
Out: 1

In: For the compound `Cc1cc(C)c(C2=C(OC(=O)C(C)C)c3ccccc3C2=O)c(C)c1` , report Phytotoxicity Rating, Bean.
Out: 1

====

# Test system: two-spotted mite
# Protocol details: Small scale field tests, mite control on Tendergreen bean plants
# Format: in vivo, Tetranychus urticae (Koch)
# Condition details: Test I, 500 ppm, 4 days; scale 1 (no control) to 5 (complete control)
# Procedure: Selected enol ester compositions were evaluated in small scale field tests to determine whether the excellent miticidal properties observed in greenhouse testing would be obtained under actual conditions of field use. In Test I 500 ppm aqueous dispersions were prepared as described above. […] The effectiveness of the treatment was determined at intervals following application, by microscopic examination of five leaves selected at random from each replicate plot. […]
Recorded endpoint: Average mite control rating, 1st Reading
Output: the number by itself.

In: For the compound Cc1cc(C)c(C2C(=O)c3ccccc3C2=O)c(C)c1 [Compound A, reference compound] , report Average mite control rating, 1st Reading.
Out: 1.0

In: For the compound `Cc1cc(C)c(C2=C(OC(=O)c3cccc(Cl)c3)c3ccccc3C2=O)c(C)c1` , report Average mite control rating, 1st Reading.
Out: 1.5

In: For the compound `O=C(OC1=C(c2c(Cl)cccc2Cl)C(=O)c2ccccc21)c1cccc(Cl)c1` , report Average mite control rating, 1st Reading.
Out: 3.0

In: For the compound `O=C(OC1=C(c2c(Cl)cccc2Cl)C(=O)c2ccccc21)c1ccccc1Cl` , report Average mite control rating, 1st Reading.
Out: 3.0

In: For the compound `CC(C)(C)C(=O)OC1=C(c2c(Cl)cccc2Cl)C(=O)c2ccccc21` , report Average mite control rating, 1st Reading.
Out: 3.5

====

# Test system: Cotton
# Protocol details: Phytotoxicity, cotton
# Condition details: 2500 ppm, 10 days
Could you please report measured Phytotoxicity Rating, Cotton for the items listed next?
Output: the number by itself.

In: For the compound `CCCCCCCCCCCCCCCCCC(=O)OC1=C(c2c(C)cc(C)cc2C)C(=O)c2ccccc21` , report Phytotoxicity Rating, Cotton.
Out: 1

In: For the compound `Cc1cc(C)c(C2=C(OC(=O)CCCCl)c3ccccc3C2=O)c(C)c1` , report Phytotoxicity Rating, Cotton.
Out: 2

In: For the compound `Cc1cc(C)c(C2=C(OC(=O)C3CCCCC3)c3ccccc3C2=O)c(C)c1` , report Phytotoxicity Rating, Cotton.
Out: 2

In: For the compound `CCCCCCCCSC(=O)OC1=C(c2c(C)cc(C)cc2C)C(=O)c2ccccc21` , report Phytotoxicity Rating, Cotton.
Out: 1

In: For the compound `CC=CCCCCCCCC(=O)OC1=C(c2c(C)cc(C)cc2C)C(=O)c2ccccc21` , report Phytotoxicity Rating, Cotton.
Out: 1

In: For the compound CCCCC(CC)COC(=O)OC1=C(c2c(C)cc(C)cc2C)C(=O)c2ccccc21 (stereo not shown) , report Phytotoxicity Rating, Cotton.
Out: 1

In: For the compound `COC(=O)CCC(=O)OC1=C(c2c(C)cc(C)cc2C)C(=O)c2ccccc21` , report Phytotoxicity Rating, Cotton.
Out: 1

In: For the compound `COCC(=O)OC1=C(c2c(C)cc(C)cc2C)C(=O)c2ccccc21` , report Phytotoxicity Rating, Cotton.
Out: 1

In: For the compound `CCCCCCCCCCCCOC(=O)OC1=C(c2c(C)cc(C)cc2C)C(=O)c2ccccc21` , report Phytotoxicity Rating, Cotton.
Out: 1

In: For the compound Cc1cc(C)c(C2=C(OC(=O)CC3C=CCC3)c3ccccc3C2=O)c(C)c1 (stereo not shown) , report Phytotoxicity Rating, Cotton.
Out: 2
